- Target system: T1, UbaA, E1-like SAMP-activating enzyme of Haloferax volcanii, purified wild type (Haloferax volcanii, UniProt D4GSF3 1-270)
- T1 sequence (looked up): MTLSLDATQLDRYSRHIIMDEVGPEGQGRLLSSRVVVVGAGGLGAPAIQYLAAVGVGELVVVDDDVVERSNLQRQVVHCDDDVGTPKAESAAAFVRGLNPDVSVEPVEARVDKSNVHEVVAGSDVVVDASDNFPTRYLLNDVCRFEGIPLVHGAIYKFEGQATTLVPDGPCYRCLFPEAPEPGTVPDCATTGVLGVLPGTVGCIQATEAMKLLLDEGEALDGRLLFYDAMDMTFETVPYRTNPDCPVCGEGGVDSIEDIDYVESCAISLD
- Run description: ITC
Measure name: Kd (µM)
Give just the numeric value; µM need not be written.

Exercise: Would you mind telling me what Kd value was observed for SAMP1, small ubiquitin-like archaeal modifier protein 1, purified (natural protein, Haloferax volcanii, UniProt D4GUF6 1-87, looked up) MEWKLFADLAEVAGSRTVRVDVDGDATVGDALDALVGAHPALESRVFGDDGELYDHINVLRNGEAAALGEATAAGDELALFPPVSGG ?
Solution: 4.4
